Assay: Pharmacokinetic study of RPDQ in rats after intragastric and intravenous administration (UPLC-MS/MS of plasma)
Type: in vivo, Wistar rats
Settings: both sexes, Wistar, rat, plasma, po; rats, 24 mg/kg intragastric
Experimental: The experiments on animals were approved by the Review Committee of Animal Care and Use of Jilin University. The study was conducted according to the ethical principles for animal use and care. Wistar rats (200 ± 20 g) were provided by Changchun Yisi Laboratory Animal Co. Ltd. (Changchun, China). […] Samples containing RPDQ above the upper limit of quantification were diluted and re-analyzed. […]
MEASUREMENT_NAME: Tmax (h)
Kindly provide the numeric value in h only, without the unit symbol.

Briefly, Tmax measured for CC(C)(O)[C@@H]1CC[C@@](C)([C@H]2CC[C@]3(C)[C@@H]2[C@H](O[C@@H]2O[C@H](CO)[C@@H](O)[C@H]2O)C[C@@H]2[C@@]4(C)CC[C@H](O)C(C)(C)[C@@H]4CC[C@]23C)O1 : 7

* * *

test: Pharmacokinetic study of RPDQ in rats after intragastric and intravenous administration (UPLC-MS/MS of plasma); assay type: in vivo, Wistar rats; settings: both sexes, Wistar, rat, plasma, po; rats, 6 mg/kg intragastric
MEASUREMENT_NAME: half-life (h)
Kindly provide the numeric value in h only, without the unit symbol.

Briefly, half-life measured for CC(C)(O)[C@@H]1CC[C@@](C)([C@H]2CC[C@]3(C)[C@@H]2[C@H](O[C@@H]2O[C@H](CO)[C@@H](O)[C@H]2O)C[C@@H]2[C@@]4(C)CC[C@H](O)C(C)(C)[C@@H]4CC[C@]23C)O1 : 12.6
